Reported values of logD for individual entries
test: Lipophilicity, log D of the compound by shake-flask technique; assay type: physicochemical; conditions: octanol/water

>>> df
                                        smi  reportedproperty  reportedvalue
0  CCCCCCCCCCNC(=O)[C@H](Cc1c[nH]cn1)NC(=O)CCN.O=C(O)C(F)(F)F              logD           0.85
1  NCCC(=O)N[C@@H](Cc1c[nH]cn1)C(=O)NCC1CCCCC1.O=C(O)C(F)(F)F              logD          -0.94
2  NCCC(=O)N[C@@H](Cc1c[nH]cn1)C(=O)NCc1ccccc1.O=C(O)C(F)(F)F              logD          -1.76
3  CCCCCCCCNC(=O)[C@H](Cc1c[nH]cn1)NC(=O)CCN.O=C(O)C(F)(F)F              logD          -0.23
4  CCCCNC(=O)[C@H](Cc1c[nH]cn1)NC(=O)CCN.O=C(O)C(F)(F)F              logD          -2.01

Given the entry `CCCCCCCCCCCCNC(=O)[C@H](Cc1c[nH]cn1)NC(=O)CCN.O=C(O)C(F)(F)F` , report its measured logD.
0.93

---

experiment: Antioxidant activity assessed as 4-hydroxy-trans-2,3-nonenal scavenging activity at 1 mM after 1 hr by HPLC relative to control; type: functional
Activity overview
I only need the number, in %, no unit after it.

Below are worked cases with known answers.
                                   compound  reportedproperty  reportedvalue
0  CCOC[C@H](Cc1c[nH]cn1)NC(=O)CCN.O=C(O)C(F)(F)F          Activity           17.9
1  NCCC(=O)N[C@@H](Cc1c[nH]cn1)C(=O)O [CARNOSINE]          Activity           20.4

Moving on to the next compound.
Record request: Activity value, item `NCCC(=O)N[C@@H](Cc1c[nH]cn1)C(N)=O.O=C(O)C(F)(F)F`
10.2

---

List of Activity values.
test: Antioxidant activity assessed as 4-hydroxy-trans-2,3-nonenal scavenging activity at 1 mM after 1 hr by HPLC relative to control; format: functional
Number in %, nothing else.

>>> df
                                        smi  unitspec  reportedvalue
0  NCCC(=O)N[C@@H](Cc1c[nH]cn1)C(=O)NCC1CCCCC1.O=C(O)C(F)(F)F         %           12.8
1  CCCNC(=O)[C@H](Cc1c[nH]cn1)NC(=O)CCN.O=C(O)C(F)(F)F         %           12.5
2  CCCCOc1ccc(CNC(=O)[C@H](Cc2c[nH]cn2)NC(=O)CCN)cc1.O=C(O)C(F)(F)F         %            8.8
3  CCCCCCNC(=O)[C@H](Cc1c[nH]cn1)NC(=O)CCN.O=C(O)C(F)(F)F         %             12
4  CCNC(=O)[C@H](Cc1c[nH]cn1)NC(=O)CCN.O=C(O)C(F)(F)F         %            8.4

Item `NCCC(=O)N[C@@H](Cc1c[nH]cn1)C(=O)NCc1ccccc1.O=C(O)C(F)(F)F` has what recorded Activity?
7.2

What value of Activity has been reported for the following molecule? `CCCCNC(=O)[C@H](Cc1c[nH]cn1)NC(=O)CCN.O=C(O)C(F)(F)F`
12.5

Please give the measured Activity for this molecule: `CNC(=O)[C@H](Cc1c[nH]cn1)NC(=O)CCN.O=C(O)C(F)(F)F`
8

Recorded Activity of `CCCCCCCCNC(=O)[C@H](Cc1c[nH]cn1)NC(=O)CCN.O=C(O)C(F)(F)F` , please.
12.8
